Each entry below carries its recorded pIC50.
Measured on: full-length beta-Catenin (Uniprot ID P35222) (Homo sapiens (Human)) (UniProt P35222)
Assay method text: fluorescence polarization competition; full-length beta-catenin, 5FAM-TCF4(10-53) probe
Starred links: 1 amine or outer side, 2 acyl side, 3 side chain; linkers in the order of their positions; H or OH if unused. Positions of bridges follow the written chain, without caps; N, C: chain ends. Non-standard residues stand in square brackets, D forms with d. Primed or numbered codes have the meaning given here. PyrS2″ = (S)-3-amino-1-((pent-4-en-1-yloxy)carbonyl)pyrrolidine-3-carboxylic acid (stapling residue), C=CCCCOC(=O)N1CC[C@@](N[*:1])(C(=O)[*:2])C1; B5(5) = 2,2-bis(4-pentenyl)glycine, 2-amino-2-(pent-4-en-1-yl)hept-6-enoic acid (stitching residue), C=CCCCC(CCCC=C)(N[*:1])C(=O)[*:2]; TfeGA = (S)-2-amino-3-((carboxymethyl)(2,2,2-trifluoroethyl)amino)propanoic acid, O=C([C@H](CN(CC(=O)[*:3])CC(F)(F)F)N[*:1])[*:2]; PyrS2 = (S)-3-amino-1-((pent-4-en-1-yloxy)carbonyl)pyrrolidine-3-carboxylic acid, C=CCCCOC(=O)N1CC[C@@](N[*:1])(C(=O)[*:2])C1; B5(22) = 2-amino-2-(pent-4-en-1-yl)hept-6-enoic acid (two alkene side chains), C=CCCCC(CCCC=C)(N[*:1])C(=O)[*:2]; 2COOHF = (S)-2-(2-amino-2-carboxyethyl)benzoic acid, O=C([C@H](Cc1ccccc1C(=O)[*:3])N[*:1])[*:2]; B5 = 2-amino-2-(pent-4-en-1-yl)hept-6-enoic acid, C=CCCCC(CCCC=C)(N[*:1])C(=O)[*:2]; Bta = N[C@@H](Cc1csc2ccccc12)C(=O)O; αAllylPro = C=CC[C@@]1(C(=O)O)CCCN1; tBuAla = CC(C)(C)C[C@H](N)C(=O)O; 3Thi = N[C@@H](Cc1ccsc1)C(=O)O
Note on pIC50: it is the negative log10 of concentration, concentration in mol/L.

{"Binder": "Ac-[αAllylPro]D[tBuAla][B5]NTAAFT[PyrS2][3Thi][Bta]F-NH2 (staple 1-4, 4-11; also: earlier eluting HPLC isomer) [I-2144]", "Numeric readout": 5.69}
{"Binder": "Ac-[αAllylPro]D[tBuAla][B5(5)]D[TfeGA]AAFN[PyrS2″][3Thi][Bta][dT]-NH2 (staple 1-4, 4-11; also: staple isomer composition, earlier-eluting HPLC peak) [I-948]", "Numeric readout": 5.61}
{"Binder": "Ac-[αAllylPro]D[tBuAla][B5(5)]D[TfeGA]AAFN[PyrS2″][3Thi][Bta]A-NH2 (staple 1-4, 4-11; also: staple isomer composition, earlier-eluting HPLC peak) [I-944]", "Numeric readout": 6.12}
{"Binder": "Ac-[αAllylPro]D[tBuAla][B5(5)]D[TfeGA]AAFN[PyrS2″][3Thi][Bta]L-NH2 (staple 1-4, 4-11; also: staple isomer composition, later-eluting HPLC peak) [I-947]", "Numeric readout": 5.98}
{"Binder": "Ac-[αAllylPro]D[tBuAla][B5(5)]D[TfeGA]AAFN[PyrS2″][3Thi][Bta][dT]-NH2 (staple 1-4, 4-11; also: staple isomer composition, later-eluting HPLC peak) [I-949]", "Numeric readout": 5.65}
{"Binder": "Ac-[αAllylPro]D[tBuAla][B5(5)]D[2COOHF]AAFF[PyrS2″][3Thi][Bta]S-NH2 (staple 1-4, 4-11) [I-1664]", "Numeric readout": 7.66}
{"Binder": "Ac-[αAllylPro]D[tBuAla][B5(22)]D[TfeGA]AAFN[PyrS2][3Thi][Bta]S-NH2 (staple 1-4, 4-11; also: staple isomer, earlier eluting HPLC peak) [I-940]", "Numeric readout": 5.76}
{"Binder": "Ac-[αAllylPro]D[tBuAla][B5(5)]D[2COOHF]AAFF[PyrS2″][3Thi][Bta]S-NH2 (staple 1-4, 4-11) [I-1665]", "Numeric readout": 7.77}

Would you kindly look at the next entry?
Data request, read-out pIC50, for Ac-[αAllylPro]D[tBuAla][B5]NTAAFH[PyrS2][3Thi][Bta]Q-NH2 (staple 1-4, 4-11; also: later eluting HPLC isomer) [I-2147]
6.41
